Test system: SF-268 CNS
Experiment: NCI tumour cell line growth inhibition, 48 h
Where a name gives a salt, the structure may show the parent alone. Where a SMILES comes first, the peptide text is derived from it. The star is where a group is joined. Tfa = O=C(C(F)(F)F)*
TGI by entry:

{"compound": "O=C1c2c(Cl)c(Cl)c(Cl)c(Cl)c2C(=O)N1CCN(c1c(Cl)ssc1=O)c1c(Cl)ssc1=O", "measured-property": "TGI", "value-observed": "> 100 µM"}
{"compound": "Clc1ncnc(Cl)c1Cl", "measured-property": "TGI", "value-observed": "> 100 µM"}
{"compound": "Cc1ccc(S(=O)(=O)N[C@H](C(=O)O)c2ccccc2)cc1", "measured-property": "TGI", "value-observed": "> 100 µM"}

Task item: Give the reported TGI for this compound. O=C(O)CC(NC(=O)C(F)(F)F)C(=O)NC(Cc1ccc(O)cc1)C(=O)O (stereo not drawn) (Tfa-Asp-Tyr-OH; configuration not given here)
Reply: > 50 µM

Task item: Give the reported TGI for this compound. O=C1OC(c2ccccc2)=N/C1=C\c1cccnc1
Reply: > 100 µM

###

Test system: OVCAR-5 ovarian
Assay: NCI tumour cell line growth inhibition, 48 h
TGI by entry:

Answered examples (2):
{"molecule": "CC(=O)[C@@H]1[C@@H](OC(=O)CCC(C)COC2OC(CO)C(O)C(O)C2O)C[C@H]2[C@@H]3CC=C4C[C@@H](OC5OC(CO)C(OC6OC(C)C(O)C(O)C6O)C(O)C5OC5OC(C)C(O)C(O)C5O)CC[C@]4(C)[C@H]3CC[C@]12C (stereo partly drawn)", "assayed-target": "OVCAR-5 ovarian", "TGI": "> 100 µM"}
{"molecule": "O=P1(C(O)/C=C/c2ccccc2)N(Cc2ccccc2)[C@H](c2ccccc2)[C@@H](c2ccccc2)N1Cc1ccccc1 (stereo partly drawn)", "assayed-target": "OVCAR-5 ovarian", "TGI": "> 100 µM"}

Task item: Give the reported TGI for this molecule. O=c1c2cc(-c3ccccc3)sc2nc2n1N=C(c1ccccc1)CS2
Reply: > 100 µM

###

Test system: SF-539 CNS
Assay: NCI tumour cell line growth inhibition, 48 h
measured-property: TGI

Answered examples (4):
{"compound": "O=P1(O)C=CC2(CCCC2)O1", "value-observed": "> 100 µM"}
{"compound": "COc1ccc(/C=C2\\CCCC(CN(C)C)C2=O)cc1 (stereo unspecified)", "value-observed": "31.1 µM"}
{"compound": "NCCNc1c2c(c(NCCN)c3c(CO)c[nH]c13)C(=O)c1ccccc1C2=O", "value-observed": "39.3 µM"}
{"compound": "CC(=O)Nc1ccc(Nc2cc(=O)[nH]c(=O)[nH]2)cc1", "value-observed": "> 100 µM"}

Task item: Give the reported TGI for this compound. COc1ccccc1NC(=O)c1sc2nc3c(cc2c1N)C(=O)CCC3
Reply: > 100 µM

Task item: Give the reported TGI for this compound. CC(NS(=O)(=O)c1ccc([N+](=O)[O-])cc1)C(=O)O (stereo unspecified)
Reply: > 100 µM

Task item: Give the reported TGI for this compound. CCOC(=O)c1ccc2[nH]c(-c3ccc(S(=O)(=O)F)cc3)cc(=O)c2c1
Reply: > 100 µM

Task item: Give the reported TGI for this compound. N#Cc1c(N2CCCC2)nsc1NCc1ccccc1
Reply: > 100 µM

Task item: Give the reported TGI for this compound. COc1cc(C(=O)/C=C/c2c(C)n([O-])c3ccc(C)cc3[n+]2=O)cc(OC)c1OC
Reply: 7.12 µM

Task item: Give the reported TGI for this compound. COc1ccc(OC)c(/C=N/NC(=O)Cc2csc3nc(-c4ccc(Br)cc4)cn23)c1
Reply: 24.4 µM

Task item: Give the reported TGI for this compound. Cc1ccc(S(=O)(=O)OC2CCN(C)CC2)cc1
Reply: > 100 µM

###

System: SF-539 CNS
Assay: NCI tumour cell line growth inhibition, 48 h; in the data active means GI50 below about 0.43 µM; inactive means the rest
A correct response names exactly one class from active, inactive

{"compound": "CCSCC1CC(O)(c2ccccc2)C(c2ccccc2)C(c2ccc(Cl)cc2)O1 (centres undefined)", "label-class": "inactive"}

Task item: Just curious, what result did COc1cc(NS(C)(=O)=O)ccc1Nc1c2ccc([N+](=O)[O-])cc2nc2c(C)cccc12 get here?
Reply: active

Task item: Just curious, what result did Nc1ccc2c(c1)C(=O)C(=O)c1c-2nc2ccccn12 get here?
Reply: inactive

Task item: Just curious, what result did Cc1cccc(NC(=O)CCc2ccc(N3C(N)=NC(N)=NC3(C)C)cc2)c1 get here?
Reply: inactive

###

System: 786-0 renal
Experiment: NCI tumour cell line growth inhibition, 48 h
TGI by entry:
Supply the numeric figure in µM, leaving out any unit text.

{"compound": "C=C(C)C(=O)O[C@H]1C/C(CO)=C/CCC(=C)C(OC(C)=O)[C@H]2OC(=O)C(=C)[C@H]12 (some centres undefined)", "TGI (µM)": 12.8}
{"compound": "COc1ccc(/C=C2\\CCCC(CN(C)C)C2=O)cc1 (centres undefined)", "TGI (µM)": 3.47}
{"compound": "CC1CC[C@]2(C(=O)O)CCC3(COC(=O)/C=C\\c4ccc(O)cc4)C(=CCC4[C@@]5(C)CC[C@H](O)C(C)(C)C5CC[C@]43C)[C@@H]2[C@H]1C (some centres undefined)", "TGI (µM)": 43.4}

// below: TGI requested for another compound
Task item: Give the reported TGI for this compound. COc1ccc(Oc2cccc(/C=C3/C(=O)Nc4ccccc43)c2)cc1
Reply: 24.1

###

System: HCT-116 colon
Assay: NCI tumour cell line growth inhibition, 48 h
measured-property: TGI (µM)
Supply the numeric figure in µM, leaving out any unit text.

{"line-notation": "O=C1c2ccccc2-c2c1c1ccccc1c(=O)n2CCCCNCCCn1c2c(c3ccccc3c1=O)C(=O)c1ccccc1-2", "unit": "µM", "TGI": 0.688}

// below: TGI requested for another compound
Task item: Give the reported TGI for this compound. CN(C)CCOc1cccc2c1C(=O)c1ccccc1C2=O
Reply: 17.2

###

System: UACC-257 melanoma
Test: NCI tumour cell line growth inhibition, 48 h
measured-property: TGI

Answered examples (2):
{"molecule": "COc1ccccc1/C=C(\\C#N)c1ccccc1", "TGI": "> 100 µM"}
{"molecule": "O=C(/C=C/c1ccc(OCCCOc2ccc(/C=C/C(=O)c3ccccc3)cc2)cc1)c1ccccc1", "TGI": "> 100 µM"}

// below: TGI requested for another molecule
Task item: # return TGI of N#Cc1c(N2CCCC2)nsc1NCc1ccccc1 (system: UACC-257 melanoma)
Reply: > 100 µM

###

System: IGROV1 ovarian
Test: NCI tumour cell line growth inhibition, 48 h
measured-property: TGI

Task item: Give the reported TGI for this compound. O=C(/C=C/c1ccc(OCCCOc2ccc(/C=C/C(=O)c3ccccc3)cc2)cc1)c1ccccc1
Reply: > 100 µM

Task item: Give the reported TGI for this compound. C/C(=N\NC(=O)c1sc(=S)n(C)c1N)c1cc2ccccc2o1
Reply: > 100 µM

Task item: Give the reported TGI for this compound. COc1cccc(C2c3cc4c(cc3OC(C)(N3CCCC3)C2C)OCO4)c1OC (stereo not given)
Reply: > 100 µM

Task item: Give the reported TGI for this compound. CN1N=CSC12C(=O)N(c1ccc(Cl)cc1)C(=O)N2c1ccc(Cl)cc1 (stereo not given)
Reply: > 100 µM

Task item: Give the reported TGI for this compound. Nc1ccc2c(c1)C(=O)C(=O)c1c-2nc2ccccn12
Reply: 3.55 µM

Task item: Give the reported TGI for this compound. CCc1nc(N)nc(N)c1-c1ccc(NCCN)c([N+](=O)[O-])c1
Reply: > 100 µM

Task item: Give the reported TGI for this compound. Cc1ccc(C2=Nc3cc(C)c(Cl)cc3S(=O)(=O)NN2)cc1
Reply: > 100 µM

Task item: Give the reported TGI for this compound. Cc1cc(N(CCC#N)CCC#N)ccc1/C(N=Nc1ccc(Cl)cc1)=N\NC(=O)c1cc(Cl)ccc1O
Reply: > 100 µM

###

System: MALME-3M melanoma
Experiment: NCI tumour cell line growth inhibition, 48 h
TGI by entry:

Answered examples (5):
{"molecule": "Cc1cc2nc(C(C)C(=O)c3ccc(Cl)cc3)c(=O)[nH]c2cc1C (stereo not given)", "value-observed": "> 100 µM"}
{"molecule": "Cc1ccc(S(=O)(=O)c2c(N)c3nc4ccccc4n3c3nc4ccccc4nc23)cc1", "value-observed": "> 100 µM"}
{"molecule": "NCCNc1c2c(c(NCCN)c3c(CO)c[nH]c13)C(=O)c1ccccc1C2=O", "value-observed": "26.3 µM"}
{"molecule": "CC(=N\\N)/C(C)=N/N=C(C)/C(C)=N/N=C(C)/C(C)=N/N=C(C)/C(C)=N/N", "value-observed": "> 100 µM"}
{"molecule": "Nc1ccc(S(=O)(=O)Nc2nnc(S(N)(=O)=O)s2)cc1", "value-observed": "> 100 µM"}

Task item: # return TGI of O=C(OCc1ccccc1CN1CCOCC1)c1cccc(Br)c1 (system: MALME-3M melanoma)
Reply: 45 µM

Task item: # return TGI of CCNC(=O)[C@@H]1CCCN2C(=O)CC[C@H](NC(=O)[C@H](Cc3ccc(OP(=O)(O)O)cc3)NC(C)=O)C(=O)N12 (system: MALME-3M melanoma)
Reply: > 25 µM

Task item: # return TGI of Nc1c(C(=O)c2cccc(CCCN3CCOCC3)c2)cnn1-c1ccc(F)cc1 (system: MALME-3M melanoma)
Reply: > 25 µM

Task item: # return TGI of COc1ccc(/C=C2\CCCC(CN(C)C)C2=O)cc1 (stereo not given) (system: MALME-3M melanoma)
Reply: 6.95 µM

Task item: # return TGI of COc1cccc2c1C(=O)C=CC2=O (system: MALME-3M melanoma)
Reply: 30.6 µM
